# Tgt: T1, mouse serum albumin (MSA), full length (mouse, UniProt P07724 25-608)
# T1 construct: mature; Immobilized on CM5 chip (SPR) or coated on plates (ELISA); also called mouse albumin; murine serum albumin
# Method Description: SPR kinetics, immobilized albumin, 1:1 fit, 37 C
Parameter Measured: koff
In your response, put the unit directly after the numeric value.

Binder: ADX_7016_E02 (L38T) (designed binder, Full His6-tagged entry; also called 6727_E08) MGVSDVPRDLEVVAATPTSLLISWDAPAVTVRYYRITYGREVQKYSDTGPLYIYQEFTVPGSKSTATISGLKPGVDYTITVYAVTGSGESPASSKPISINYRTEIDKPSQHHHHHH
Parameter Measured: koff
Measured Value: 0.0343 s⁻¹

Binder: ADX_7016_C03 (Y44Q) (designed binder, Full His6-tagged entry; also called 6727_B03) MGVSDVPRDLEVVAATPTSLLISWDAPAVTVRYYRITYGREVQKYSDLGPLYIQQEFTVPGSKSTATISGLKPGVDYTITVYAVTGSGESPASSKPISINYRTEIDKPSQHHHHHH
Parameter Measured: koff
Measured Value: 0.0305 s⁻¹

Binder: ADX_7016_G01 (Y44S) (designed binder, Full His6-tagged entry; also called 6727_G02) MGVSDVPRDLEVVAATPTSLLISWDAPAVTVRYYRITYGREVQKYSDLGPLYISQEFTVPGSKSTATISGLKPGVDYTITVYAVTGSGESPASSKPISINYRTEIDKPSQHHHHHH
Parameter Measured: koff
Measured Value: 0.00629 s⁻¹

Look up koff for this binder: ADX_7016_A01 (parent PKE2 Adnectin) (designed binder, N-terminal Met may be cleaved; also called 2629_E06; ADX_2629_E06) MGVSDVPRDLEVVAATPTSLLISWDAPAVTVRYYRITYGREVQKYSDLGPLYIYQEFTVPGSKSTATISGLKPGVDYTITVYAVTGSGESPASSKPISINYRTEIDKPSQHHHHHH 0.000668 s⁻¹
